target: actin.PsoS1; assay: ADP dissociation constant (KADP) by competitive inhibition of ATP-induced dissociation, psoas; format: binding, rabbit; conditions: Psoas S1, pH 6.2, 10°C; read-out: KADP
endpoint: Kd (µM)
Respond numerically; units are µM and should not be typed.

For reference, reported Kd for Nc1ncnc2c1ncn2[C@@H]1O[C@H](COP(=O)(O)OP(=O)(O)O)[C@@H](O)[C@H]1O [ADP] stands at 256

====

target: actin.PsoS1; assay: ADP dissociation constant in the presence of phosphate (KADP+Pi) and calculated KPi app, psoas; assay type: binding, rabbit; conditions: Psoas S1, pH 7.0, 20°C, 30 mM Pi; read-out: KADP+Pi
endpoint: Kd (µM)
# unit: µM | format: bare number

Measured Kd of Nc1ncnc2c1ncn2[C@@H]1O[C@H](COP(=O)(O)OP(=O)(O)O)[C@@H](O)[C@H]1O [ADP] : 919
